Quick reference: EC50 of the listed items.
tested on: Plasmodium falciparum; experiment: Antimalarial activity against Plasmodium falciparum; type: functional, organism-based; conditions: Plasmodium falciparum

[
  {
    "molecule": "COc1ccc2c(c1O)CCc1cc(O)c(C)c3c1C2CC(C)(C)O3 (stereo not drawn) [RACEMOSOL]",
    "target.entity": "Plasmodium falciparum",
    "EC50": "0.9 µg/mL"
  },
  {
    "molecule": "Cc1c(O)cc2c3c1OC(C)(C)CC3c1ccc(O)c(O)c1CC2 (stereo not drawn) [DEMETHYLRACEMOSOL]",
    "target.entity": "Plasmodium falciparum",
    "EC50": "2 µg/mL"
  },
  {
    "molecule": "C=C(CO)[C@@]12O[C@@H]1[C@@]1(C)C(=CC2=O)CC[C@@H](O)[C@@H]1C",
    "target.entity": "Plasmodium falciparum",
    "EC50": "0.32 µg/mL"
  }
]

Consider the additional molecule presented here.
GET /value?item= `C[C@H]1[C@H](O)CCC2=CC(=O)[C@@]3([C@@]4(CO)CO4)O[C@@H]3[C@@]21C` &field=EC50 returns 0.5 µg/mL

###

system: Plasmodium falciparum; experiment: Antimalarial activity against Plasmodium falciparum FCA 20; assay type: functional, organism-based
metric: pIC50
// pIC50 is dimensionless: -log10 of concentration (M)

GET /value?item= `C=Cc1c[n+]2c(c(O)c1C[C@H]1c3[nH]c4ccccc4c3CCN1C)-c1[nH]c3c([C@H]4CCCN4C)c(O)ccc3c1CC2` &field=pIC50 returns 6.30

###

test system: Plasmodium falciparum; experiment: Antimalarial activity against Plasmodium falciparum FCB1-R; format: functional, organism-based
metric: IC50 (nM)
// return numeric value only (unit: nM, not printed)

GET /value?item= `C=Cc1c[n+]2c(c(O)c1C[C@H]1c3[nH]c4ccccc4c3CCN1C)-c1[nH]c3c([C@H]4CCCN4C)c(O)ccc3c1CC2` &field=IC50 returns 500
